Sourced from patent US4065616A

MIC data for Salmonella typhosa T-63 follow.
Numeric answer only, unit µg/mL assumed.

>>> quantitative_result("NCC[C@H](O)C(=O)N[C@@H]1C[C@H](N)[C@@H](O[C@H]2O[C@H](CN)[C@@H](O)C[C@H]2N)[C@H](O[C@@H]2O[C@@H](CO)[C@H](O)[C@H]2O)[C@H]1O")
0.78
>>> quantitative_result("NCC[C@H](O)C(=O)N[C@@H]1C[C@H](N)[C@@H](O[C@H]2O[C@H](CN)[C@@H](O)C[C@H]2N)[C@H](O[C@@H]2O[C@H](CN)[C@H](O)[C@H]2O)[C@H]1O")
0.2
>>> quantitative_result("NCC[C@H](O)C(=O)N[C@@H]1C[C@H](N)[C@@H](O[C@H]2O[C@H](CN)[C@@H](O)C[C@H]2N)[C@H](O[C@@H]2O[C@H](CO)[C@@H](O)[C@H]2O)[C@H]1O")
0.39
>>> quantitative_result("NCC(O)C(=O)N[C@@H]1C[C@H](N)[C@@H](O[C@H]2O[C@H](CN)[C@@H](O)C[C@H]2N)[C@H](O[C@@H]2O[C@H](CO)[C@H](O)[C@H]2O)[C@H]1O (stereo partly drawn)")
1.56
>>> quantitative_result("NC[C@H](O)C(=O)N[C@@H]1C[C@H](N)[C@@H](O[C@H]2O[C@H](CN)[C@@H](O)C[C@H]2N)[C@H](O[C@@H]2O[C@H](CO)[C@H](O)[C@H]2O)[C@H]1O")
0.78

**Q:** GET MIC | system: Salmonella typhosa T-63 | item: NCC[C@H](O)C(=O)N[C@@H]1C[C@H](N)[C@@H](O[C@H]2O[C@H](CN)[C@@H](O)C[C@H]2N)[C@H](O[C@@H]2O[C@H](CO)[C@H](O)[C@H]2O)[C@H]1O
**A:** 0.78
